Measured values drawn from paper PMC3688284 for this set.

Measured on: recombinant human wild type LRRK2 (Homo sapiens)
Sequence (Q5S007 whole entry): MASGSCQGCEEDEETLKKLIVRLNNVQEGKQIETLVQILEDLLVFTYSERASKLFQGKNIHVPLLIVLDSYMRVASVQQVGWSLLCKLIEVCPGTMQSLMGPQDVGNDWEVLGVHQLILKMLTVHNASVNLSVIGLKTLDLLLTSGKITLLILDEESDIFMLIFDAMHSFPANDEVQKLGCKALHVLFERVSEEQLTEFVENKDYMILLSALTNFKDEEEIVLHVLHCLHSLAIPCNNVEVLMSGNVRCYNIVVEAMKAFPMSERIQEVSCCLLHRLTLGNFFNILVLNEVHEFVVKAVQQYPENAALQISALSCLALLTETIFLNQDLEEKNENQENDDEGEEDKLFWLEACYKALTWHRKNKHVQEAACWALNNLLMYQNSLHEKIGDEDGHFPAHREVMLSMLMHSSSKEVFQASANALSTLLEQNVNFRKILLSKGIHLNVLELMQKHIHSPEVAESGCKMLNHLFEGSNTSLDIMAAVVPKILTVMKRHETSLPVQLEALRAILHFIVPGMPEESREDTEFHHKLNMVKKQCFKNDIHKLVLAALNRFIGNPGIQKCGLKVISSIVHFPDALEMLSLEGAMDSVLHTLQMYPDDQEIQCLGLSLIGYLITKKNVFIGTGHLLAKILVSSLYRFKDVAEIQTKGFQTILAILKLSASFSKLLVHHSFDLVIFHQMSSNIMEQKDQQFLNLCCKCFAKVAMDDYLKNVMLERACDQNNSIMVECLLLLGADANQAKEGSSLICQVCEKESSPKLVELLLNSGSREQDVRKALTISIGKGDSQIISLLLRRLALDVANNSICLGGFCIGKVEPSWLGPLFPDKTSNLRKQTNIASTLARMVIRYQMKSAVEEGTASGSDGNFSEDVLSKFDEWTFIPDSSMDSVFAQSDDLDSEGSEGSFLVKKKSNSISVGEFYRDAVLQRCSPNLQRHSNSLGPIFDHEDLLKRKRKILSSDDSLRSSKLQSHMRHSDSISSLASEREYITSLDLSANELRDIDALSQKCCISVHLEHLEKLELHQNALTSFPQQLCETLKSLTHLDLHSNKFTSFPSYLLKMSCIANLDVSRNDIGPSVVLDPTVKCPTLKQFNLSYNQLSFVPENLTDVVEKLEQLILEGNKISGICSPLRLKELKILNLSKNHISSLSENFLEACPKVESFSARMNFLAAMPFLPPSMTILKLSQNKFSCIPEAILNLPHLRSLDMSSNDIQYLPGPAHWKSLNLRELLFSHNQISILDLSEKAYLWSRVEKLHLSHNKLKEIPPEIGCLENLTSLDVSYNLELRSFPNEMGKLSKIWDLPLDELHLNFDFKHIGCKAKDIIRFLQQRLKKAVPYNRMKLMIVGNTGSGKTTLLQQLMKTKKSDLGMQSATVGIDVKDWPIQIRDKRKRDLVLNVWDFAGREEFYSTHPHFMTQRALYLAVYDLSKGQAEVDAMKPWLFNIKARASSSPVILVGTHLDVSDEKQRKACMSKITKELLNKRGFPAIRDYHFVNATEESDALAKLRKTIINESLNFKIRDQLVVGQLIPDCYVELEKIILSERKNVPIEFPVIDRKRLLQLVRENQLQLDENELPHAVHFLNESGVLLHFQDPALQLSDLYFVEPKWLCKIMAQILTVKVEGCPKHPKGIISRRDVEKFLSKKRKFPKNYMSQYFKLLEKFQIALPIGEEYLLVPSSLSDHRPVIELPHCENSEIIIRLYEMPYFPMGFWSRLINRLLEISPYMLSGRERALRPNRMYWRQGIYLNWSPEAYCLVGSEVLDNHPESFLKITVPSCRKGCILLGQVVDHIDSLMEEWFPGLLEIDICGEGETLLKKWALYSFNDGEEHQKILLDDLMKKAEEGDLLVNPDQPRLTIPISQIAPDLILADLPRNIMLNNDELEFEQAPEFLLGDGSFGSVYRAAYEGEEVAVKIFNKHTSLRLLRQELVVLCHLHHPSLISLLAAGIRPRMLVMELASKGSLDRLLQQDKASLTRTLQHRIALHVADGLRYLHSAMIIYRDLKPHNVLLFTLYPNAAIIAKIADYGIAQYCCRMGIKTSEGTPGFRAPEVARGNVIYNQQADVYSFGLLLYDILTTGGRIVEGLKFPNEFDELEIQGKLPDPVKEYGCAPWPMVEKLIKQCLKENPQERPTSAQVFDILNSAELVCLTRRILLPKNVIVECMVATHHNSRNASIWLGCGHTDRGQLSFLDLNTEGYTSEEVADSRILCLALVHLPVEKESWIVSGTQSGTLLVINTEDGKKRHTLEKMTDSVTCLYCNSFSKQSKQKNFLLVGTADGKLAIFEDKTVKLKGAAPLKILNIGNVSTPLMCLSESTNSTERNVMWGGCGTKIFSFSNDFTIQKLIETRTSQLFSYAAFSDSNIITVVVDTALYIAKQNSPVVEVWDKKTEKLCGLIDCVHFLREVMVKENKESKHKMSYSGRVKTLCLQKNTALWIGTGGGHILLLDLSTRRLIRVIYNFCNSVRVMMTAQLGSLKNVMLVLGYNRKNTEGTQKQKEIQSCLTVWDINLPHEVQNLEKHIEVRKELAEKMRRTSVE
Test protocol: TR-FRET-based kinase activity assay, wild type LRRK2
Measurement setup: read-out: IC50, human wild type LRRK2 activity, ATP 100 μM
Below is a list of entries, each paired with its recorded pIC50 value.
pIC50 (log units): -log10 of the concentration in mol/L.

# Smi, Measured on, pIC50
records = [
    ("COc1cc(N2CCOCC2)ccc1Nc1ncc(Cl)c(Nc2ccccc2NS(C)(=O)=O)n1", "recombinant human wild type LRRK2 (Homo sapiens)", 8.89),
]

Any idea what pIC50 was measured for COc1cc(N2CCOCC2)ccc1Nc1ncc(F)c(Nc2ccccc2NS(C)(=O)=O)n1 ?
8.32

---

Measured on: G2019S LRRK2 (Homo sapiens, UniProt Q5S007, G2019S)
Sequence (Q5S007 whole entry G2019S): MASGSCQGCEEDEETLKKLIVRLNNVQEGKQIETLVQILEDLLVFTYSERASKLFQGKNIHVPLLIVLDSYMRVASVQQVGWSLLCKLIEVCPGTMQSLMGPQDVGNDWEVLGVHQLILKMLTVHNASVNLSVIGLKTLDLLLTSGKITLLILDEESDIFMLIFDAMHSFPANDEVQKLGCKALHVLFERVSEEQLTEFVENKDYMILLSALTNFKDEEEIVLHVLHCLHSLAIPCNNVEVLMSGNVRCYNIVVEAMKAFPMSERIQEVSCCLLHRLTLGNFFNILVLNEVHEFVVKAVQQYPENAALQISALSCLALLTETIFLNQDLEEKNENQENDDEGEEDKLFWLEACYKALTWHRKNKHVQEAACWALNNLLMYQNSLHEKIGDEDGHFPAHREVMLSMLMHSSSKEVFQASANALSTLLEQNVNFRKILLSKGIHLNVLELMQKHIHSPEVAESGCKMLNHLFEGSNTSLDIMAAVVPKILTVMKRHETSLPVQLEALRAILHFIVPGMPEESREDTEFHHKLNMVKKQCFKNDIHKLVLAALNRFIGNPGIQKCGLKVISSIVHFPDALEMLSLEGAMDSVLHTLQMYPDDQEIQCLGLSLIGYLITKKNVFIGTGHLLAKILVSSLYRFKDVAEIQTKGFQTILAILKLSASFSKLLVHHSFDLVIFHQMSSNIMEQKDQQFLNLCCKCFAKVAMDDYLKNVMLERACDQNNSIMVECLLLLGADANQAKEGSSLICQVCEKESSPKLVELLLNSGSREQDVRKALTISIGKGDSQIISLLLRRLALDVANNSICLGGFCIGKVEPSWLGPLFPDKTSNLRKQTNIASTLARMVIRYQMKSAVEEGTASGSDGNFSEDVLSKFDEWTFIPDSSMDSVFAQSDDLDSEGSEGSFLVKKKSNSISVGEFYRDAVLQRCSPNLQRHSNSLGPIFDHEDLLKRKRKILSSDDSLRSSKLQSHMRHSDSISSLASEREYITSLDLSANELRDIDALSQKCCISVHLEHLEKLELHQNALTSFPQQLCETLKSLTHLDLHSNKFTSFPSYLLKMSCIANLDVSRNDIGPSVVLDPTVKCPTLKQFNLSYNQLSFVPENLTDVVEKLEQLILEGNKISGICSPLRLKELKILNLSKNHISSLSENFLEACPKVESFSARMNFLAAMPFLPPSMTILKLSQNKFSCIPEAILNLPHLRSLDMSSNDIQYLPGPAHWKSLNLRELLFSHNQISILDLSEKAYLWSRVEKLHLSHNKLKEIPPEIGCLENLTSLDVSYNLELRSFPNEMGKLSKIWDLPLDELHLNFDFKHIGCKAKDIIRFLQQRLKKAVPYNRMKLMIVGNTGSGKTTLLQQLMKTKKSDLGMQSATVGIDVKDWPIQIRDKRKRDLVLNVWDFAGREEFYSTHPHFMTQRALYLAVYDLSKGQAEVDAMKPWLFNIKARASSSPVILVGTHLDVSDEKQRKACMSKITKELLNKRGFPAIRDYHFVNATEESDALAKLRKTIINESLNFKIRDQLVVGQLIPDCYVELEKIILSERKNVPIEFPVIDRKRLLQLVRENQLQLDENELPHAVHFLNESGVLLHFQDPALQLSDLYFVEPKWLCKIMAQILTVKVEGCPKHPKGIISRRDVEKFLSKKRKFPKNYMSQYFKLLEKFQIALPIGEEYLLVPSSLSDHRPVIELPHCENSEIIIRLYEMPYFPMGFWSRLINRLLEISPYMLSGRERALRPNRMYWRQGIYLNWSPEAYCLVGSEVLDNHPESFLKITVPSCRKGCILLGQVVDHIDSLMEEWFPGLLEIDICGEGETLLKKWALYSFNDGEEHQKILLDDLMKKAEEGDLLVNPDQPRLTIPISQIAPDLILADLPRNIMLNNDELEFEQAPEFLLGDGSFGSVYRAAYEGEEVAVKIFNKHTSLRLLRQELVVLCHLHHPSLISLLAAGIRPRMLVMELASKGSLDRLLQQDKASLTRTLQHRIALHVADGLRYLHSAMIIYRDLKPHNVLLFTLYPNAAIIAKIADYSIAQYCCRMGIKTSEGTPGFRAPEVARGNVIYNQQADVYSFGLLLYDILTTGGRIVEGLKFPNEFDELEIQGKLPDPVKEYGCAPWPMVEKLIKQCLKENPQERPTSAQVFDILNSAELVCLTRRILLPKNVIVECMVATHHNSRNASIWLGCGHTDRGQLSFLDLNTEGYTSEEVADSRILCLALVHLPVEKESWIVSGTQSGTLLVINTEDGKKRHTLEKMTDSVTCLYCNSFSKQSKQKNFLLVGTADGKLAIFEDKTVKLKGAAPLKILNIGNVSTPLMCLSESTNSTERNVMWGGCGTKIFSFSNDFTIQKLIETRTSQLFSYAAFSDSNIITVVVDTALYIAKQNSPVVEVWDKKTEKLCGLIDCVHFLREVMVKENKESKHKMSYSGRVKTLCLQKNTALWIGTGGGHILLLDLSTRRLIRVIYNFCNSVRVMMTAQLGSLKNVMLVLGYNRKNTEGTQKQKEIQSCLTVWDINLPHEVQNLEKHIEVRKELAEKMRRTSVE
Test protocol: TR-FRET-based kinase activity assay, G2019S LRRK2
Measurement setup: read-out: IC50, G2019S LRRK2 activity, ATP 100 μM
Below is a list of entries, each paired with its recorded pIC50 value.
pIC50 (log units): -log10 of the concentration in mol/L.

# Smi, pIC50
data = [
    ("COc1cc(N2CCOCC2)ccc1Nc1ncc(Cl)c(Nc2ccccc2NS(C)(=O)=O)n1", 8.73),
]

Now look at this entry.
Any idea what pIC50 was measured for COc1cc(N2CCOCC2)ccc1Nc1ncc(F)c(Nc2ccccc2NS(C)(=O)=O)n1 ?
8.16
